- assayTarget: human recombinant adrenergic α2A receptor (Homo sapiens)
- Construct: expressed in transfected cells; host or cells: insect Sf9 cells
- Sequence (P08913 1-465): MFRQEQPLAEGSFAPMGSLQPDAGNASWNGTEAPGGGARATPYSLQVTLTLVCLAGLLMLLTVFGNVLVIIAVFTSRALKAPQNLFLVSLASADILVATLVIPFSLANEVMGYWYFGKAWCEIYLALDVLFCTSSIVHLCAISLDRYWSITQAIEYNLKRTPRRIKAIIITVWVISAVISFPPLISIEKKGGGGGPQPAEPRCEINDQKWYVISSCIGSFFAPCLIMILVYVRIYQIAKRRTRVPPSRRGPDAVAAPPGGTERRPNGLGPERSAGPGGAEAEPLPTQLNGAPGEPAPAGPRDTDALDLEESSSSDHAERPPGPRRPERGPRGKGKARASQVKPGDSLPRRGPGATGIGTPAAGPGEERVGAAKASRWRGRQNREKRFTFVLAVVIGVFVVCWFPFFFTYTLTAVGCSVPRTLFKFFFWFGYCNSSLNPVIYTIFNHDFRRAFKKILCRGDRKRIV
- experimentDescription: Adrenergic α2A radioligand binding ([3H]MK-912)
- Design: concentration or dose not given beside the values
- measurementParameters: percent inhibition of specific binding
Label scheme for Inhibition of ligand binding, Adren. alpha2A: lower than 30% is class 0, 30% and above is class 1.

Cc1ccc2c(c1)c1c(n2CCc2cncc(C(F)(F)F)c2)CCN(C)C1 :: class 1
CCOC(=O)N1CCc2c(c3cc(-c4cccnc4)ccc3n2CCc2ccc(C)nc2)C1 :: class 0
Cc1ccc2c(c1)c1c(n2CCC(=O)N2CCC(N)CC2)CCN(C)C1 :: class 0
CN1CCc2c(c3cc(Cl)ccc3n2CCC2CCCCC2)C1 :: class 1

Input line: Could you tell me if the measured Inhibition of ligand binding, Adren. alpha2A of CN1CCc2c(c3cc(Cl)ccc3n2CCN2CCOCC2)C1 reaches 30% or more?
Output line: class 1

Input line: Is it the case that COc1ccc(CCn2c3c(c4cc(C)ccc42)CN(C)CC3)cc1 has Inhibition of ligand binding, Adren. alpha2A reaching or exceeding 30%?
Output line: class 1

Input line: Threshold query (Inhibition of ligand binding, Adren. alpha2A >= 30%) on Cc1cccc2c3c(n(CCc4ccc(C(F)(F)F)nc4)c12)CCN(C)C3
Output line: class 1

Input line: Form field: Inhibition of ligand binding, Adren. alpha2A at least 30%? Entry: Cc1ccc2c(c1)c1c(n2CC(=O)N2CCOCC2)CCN(C)C1
Output line: class 0

====

- assayTarget: human recombinant serotonin (5-Hydroxytryptamine) 5-HT2A receptor (Homo sapiens, UniProt P28223)
- Construct: expressed in transfected cells; host or cells: CHO-K1 cells
- Sequence (P28223 whole entry): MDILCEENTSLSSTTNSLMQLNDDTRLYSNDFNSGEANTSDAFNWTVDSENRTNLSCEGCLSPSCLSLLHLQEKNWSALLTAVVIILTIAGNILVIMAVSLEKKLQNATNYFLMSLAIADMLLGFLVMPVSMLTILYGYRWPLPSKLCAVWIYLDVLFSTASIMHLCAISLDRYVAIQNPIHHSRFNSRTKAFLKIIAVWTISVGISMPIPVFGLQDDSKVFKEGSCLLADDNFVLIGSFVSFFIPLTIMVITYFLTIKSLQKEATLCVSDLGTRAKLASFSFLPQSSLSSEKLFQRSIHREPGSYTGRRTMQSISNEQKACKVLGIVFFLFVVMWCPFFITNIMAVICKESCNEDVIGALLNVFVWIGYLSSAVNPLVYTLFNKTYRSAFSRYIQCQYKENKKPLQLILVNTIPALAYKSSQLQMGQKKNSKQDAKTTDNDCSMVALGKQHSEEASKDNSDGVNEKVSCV
- experimentDescription: Serotonin 5-HT2A radioligand binding ([3H]Ketanserin)
- measurementParameters: percent inhibition of specific binding
Entry flag: Satisfied if Inhibition of ligand binding, Ser. 5-HT2A reaches 90%; Not satisfied if it does not.

Take a look at these entries with their results.
Cc1ccc2c(c1)c1c(n2CCc2ccc(C)nc2)CCN(C)C1=O :: Not satisfied
Cc1ccc2c(c1)c1c(n2Cc2ccc(C)nc2)CCN(C)C1 :: Not satisfied
Cc1ccc2c(c1)c1c(n2CCc2ccc(F)cc2)CCN(C)C1 :: Satisfied

Could you now look at the following compound, please?
Input line: Given the entry CCN1CCc2c(c3ccccc3n2Cc2ccccc2)C1 , answer whether its Inhibition of ligand binding, Ser. 5-HT2A meets or surpasses 90%.
Output line: Not satisfied

====

- assayTarget: human recombinant serotonin (5-Hydroxytryptamine) 5-HT2C receptor (Homo sapiens)
- Construct: expressed in transfected cells; host or cells: CHO-K1 cells
- Sequence (P28335 33-458): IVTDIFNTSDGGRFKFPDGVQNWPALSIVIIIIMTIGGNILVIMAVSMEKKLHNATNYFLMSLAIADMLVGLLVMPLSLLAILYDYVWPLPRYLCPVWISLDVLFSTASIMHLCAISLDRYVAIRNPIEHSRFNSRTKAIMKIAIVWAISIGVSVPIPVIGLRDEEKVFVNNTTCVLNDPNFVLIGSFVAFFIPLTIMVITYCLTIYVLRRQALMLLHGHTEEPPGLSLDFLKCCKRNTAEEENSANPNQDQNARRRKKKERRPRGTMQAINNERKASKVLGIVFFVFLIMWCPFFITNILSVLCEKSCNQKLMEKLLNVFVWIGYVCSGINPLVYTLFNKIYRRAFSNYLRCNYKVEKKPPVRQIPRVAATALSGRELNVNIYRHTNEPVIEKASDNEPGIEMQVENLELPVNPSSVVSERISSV
- experimentDescription: Serotonin 5-HT2C radioligand binding ([3H]Mesulergine)
- Set-up: concentration or dose not given beside the values
- measurementParameters: percent inhibition of specific binding
metricName: Inhibition of ligand binding, Ser. 5-HT2C (%)
Field format: number, assumed %, no unit text.

Cc1ccc2c(c1)c1c(n2CCN2CCCC2)CCN(C)C1 :: 69
Cc1ccc2c(c1)c1c(n2CC(=O)N2CCN(C)CC2)CCN(C)C1 :: 3
Cc1ccc2c(c1)c1c(n2CCc2ccc(OC(C)(C)C)cc2)CCN(C)C1 :: 72
CC1CCN(C(=O)CCn2c3c(c4cc(Cl)ccc42)CN(C)CC3)CC1 :: 50
CN1CCc2c(c3cc(Cl)ccc3n2CCc2cncc(C(F)(F)F)c2)C1 :: 80

Input line: Give the measured Inhibition of ligand binding, Ser. 5-HT2C of CN1CCc2c(c3cc(Cl)ccc3n2CCc2ccc(C(F)(F)F)nc2)C1 .
Output line: 79

Input line: Quick one: Inhibition of ligand binding, Ser. 5-HT2C of Cc1ccc2c(c1)c1c(n2CCc2ccc(Cl)cc2)CCN(C)C1 ?
Output line: 100

Input line: Could you share which Inhibition of ligand binding, Ser. 5-HT2C value was measured for Cc1ccc2c(c1)c1c(n2CCCc2ccccn2)CCN(C)C1 ?
Output line: 93

Input line: Inhibition of ligand binding, Ser. 5-HT2C for CN1CCc2c(c3cc(Cl)ccc3n2CCc2ccccn2)C1 ?
Output line: 90

Input line: Which Inhibition of ligand binding, Ser. 5-HT2C value belongs to Cc1cnc(CCn2c3c(c4cc(C(C)C)ccc42)CN(C)CC3)cn1 ?
Output line: 57

Input line: Please look up its Inhibition of ligand binding, Ser. 5-HT2C: Cc1ccc2c(c1)c1c(n2Cc2ccc(C)nc2)CCN(C)C1
Output line: 0

Input line: Value lookup for Inhibition of ligand binding, Ser. 5-HT2C; key = CN1CCc2c(c3ccccc3n2CCc2ccccc2)C1
Output line: 97

====

- assayTarget: human recombinant histamine H2 receptor (Homo sapiens, UniProt P25021)
- Construct: expressed in transfected cells; host or cells: CHO-K1 cells
- Sequence (P25021 whole entry): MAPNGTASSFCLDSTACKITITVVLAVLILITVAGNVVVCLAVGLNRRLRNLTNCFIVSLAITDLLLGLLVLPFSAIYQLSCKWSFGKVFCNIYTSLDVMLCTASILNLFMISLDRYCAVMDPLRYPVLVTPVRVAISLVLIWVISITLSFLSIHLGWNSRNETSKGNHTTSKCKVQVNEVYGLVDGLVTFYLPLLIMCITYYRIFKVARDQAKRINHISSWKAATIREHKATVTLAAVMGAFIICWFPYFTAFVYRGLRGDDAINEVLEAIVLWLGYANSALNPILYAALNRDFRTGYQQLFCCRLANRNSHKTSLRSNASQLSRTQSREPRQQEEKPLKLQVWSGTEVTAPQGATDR
- experimentDescription: Histamine H2 radioligand binding ([125I]Aminopotentidine)
- measurementParameters: percent inhibition of specific binding; screened at 1 μM; read-out: Inhibition of ligand binding, Hist. H2
Returns one of true or false; true when inhibition at 1 µM is >= 50%.

Example cases with answers are listed next.
Cc1ccc(CCn2c3c(c4cc(C(=O)O)ccc42)CNCC3)cn1 [Compound 274] :: false
Cc1cnc(CCn2c3c(c4cc(C(C)C)ccc42)CN(C)CC3)cn1 [Compound 369] :: false
CN1CCc2c(c3cc(Cl)ccc3n2CCCc2ccc(C(F)(F)F)nc2)C1 [Compound 324] :: true
CCOC(=O)c1ccc(CCn2c3c(c4cc(C)ccc42)CN(C)CC3)cn1 [Compound 275] :: false
CN1CCc2c(c3cc(Cl)ccc3n2CC(=O)N2CCS(=O)(=O)CC2)C1 [Compound 295] :: false

Input line: Could you tell me if the measured inhibition at 1 µM of Cc1ccc2c(c1)c1c(n2CCc2ccc(CO)nc2)CCN(C)C1 [Compound 267] reaches 50% or more?
Output line: false

Input line: Can Cc1ccc2c(c1)c1c(n2CCc2cccnc2)CCN(C)C1 [Compound 60] be said to have inhibition at 1 µM at or above 50%?
Output line: true

Input line: Given the entry Cc1ccc2c(c1)c1c(n2CCc2ccc(OC(C)(C)C)cc2)CCN(C)C1 [Compound 335] , answer whether its inhibition at 1 µM meets or surpasses 50%.
Output line: true

Input line: Reported inhibition at 1 µM reaches at least 50% for Cc1ccc2c(c1)c1c(n2CCN2CCCC2)CCN(C)C1 [Compound 221] ?
Output line: true

Input line: Form field: inhibition at 1 µM at least 50%? Entry: CC(=O)N1CCN(C(=O)Cn2c3c(c4cc(Cl)ccc42)CN(C)CC3)CC1 [Compound 297]
Output line: false

Input line: Evaluate Cc1ccc2c(c1)c1c(n2CCc2ccc(C(C)C)nc2)CCN(C)C1 [Compound 360] : inhibition at 1 µM at minimum 50%?
Output line: true

====

- assayTarget: human recombinant adrenergic α2A receptor (Homo sapiens)
- Construct: expressed in transfected cells; host or cells: insect Sf9 cells
- experimentDescription: Adrenergic α2A radioligand binding ([3H]MK-912)
- Parameters: concentration or dose not given beside the values
- measurementParameters: percent inhibition of specific binding
Item-by-item account of Inhibition of ligand binding, Adren. alpha2A
Your answer is read as %, so omit the unit and give the number.

Recorded Inhibition of ligand binding, Adren. alpha2A, per entry:
CN1CCc2c(c3cccc(Cl)c3n2CCc2ccccc2)C1 [Compound 83] :: 100
CC(C)c1ccc(CCn2c3c(c4cc(Cl)ccc42)CN(C)CC3)cn1 [Compound 372] :: 100
Cc1ccc2c(c1)c1c(n2CCCc2ccccn2)CCN(C)C1 [Compound 233] :: 90
CC(=O)N1CCN(C(=O)Cn2c3c(c4cc(Cl)ccc42)CN(C)CC3)CC1 [Compound 297] :: −2

Shift focus to the following entry.
Input line: I'd like to know its Inhibition of ligand binding, Adren. alpha2A. The compound in question is CN1CCc2c(c3cc(Cl)ccc3n2CCc2cncc(Cl)c2)C1 [Compound 444]
Output line: 89
